assayName: TRM-201-PK-102 single-dose four-period crossover pharmacokinetic study, fasted healthy subjects
Assay type: in vivo, human
conditionContext: human, plasma, oral, 12.5 mg, 102 study, 41-52 years, read-out: arithmetic mean AUC0-∞

smilesInput | AUC(0-inf), ng·h/mL
CS(=O)(=O)c1ccc(C2=C(c3ccccc3)C(=O)OC2)cc1 | 2090

* * *

assayName: TRM-201-PK-102 single-dose four-period crossover pharmacokinetic study, fasted healthy subjects
Assay type: in vivo, human
conditionContext: human, plasma, oral, 17.5 mg, 102 study, non-Hispanic or non-Latino subjects, read-out: arithmetic mean AUC0-∞

compound | AUC(0-inf) [ng·h/mL]
CS(=O)(=O)c1ccc(C2=C(c3ccccc3)C(=O)OC2)cc1 [TRM-201] | 3050
